- target.of.assay: T1, human IL-18BP (interleukin-18 binding protein, isoform A) (human, UniProt O95998 31-194)
- T1 construct: cell assays used Sino Biological 10357-H08H; PBMC assay 1 relies on endogenous IL-18BP; UniProt number is printed as 095998; also called hIL-18BP
- T1 sequence: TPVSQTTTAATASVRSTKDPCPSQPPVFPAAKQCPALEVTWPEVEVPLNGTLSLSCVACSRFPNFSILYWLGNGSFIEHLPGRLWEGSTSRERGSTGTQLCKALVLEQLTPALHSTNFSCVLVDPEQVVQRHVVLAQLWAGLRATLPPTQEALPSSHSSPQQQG
- experiment.description: BLI (Octet), mAb on AHC biosensor
The reader will find reported pKd values listed item by item below.
Value format note: pKd is -log10 of concentration (mol/L); just state the number.

Here are 5 binders together with their reported answers.
SA338a (antibody, human IgG1, V domains shown, humanized; human IgG1 (suffix a), kappa) VH: QVQLQESGPGLVKPSQTLSLTCTVSGYSITQDYNAHWIRQPPGKGLEWIGYIHYSGQTYYNPSLKSRVTISRDTSKNQFSLKLSSVTAADTAVYYCARNFGSIYVNYFDYWGQGTLVTVSS VL: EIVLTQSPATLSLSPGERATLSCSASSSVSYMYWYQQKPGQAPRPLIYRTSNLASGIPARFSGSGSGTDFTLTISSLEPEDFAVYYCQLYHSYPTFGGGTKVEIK ... 10.49
SA340a (antibody, human IgG1, V domains shown, humanized; human IgG1 (suffix a), kappa) VH: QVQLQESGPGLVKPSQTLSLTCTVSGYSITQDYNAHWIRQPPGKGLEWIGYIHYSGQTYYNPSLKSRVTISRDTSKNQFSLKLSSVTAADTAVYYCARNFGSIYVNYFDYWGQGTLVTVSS VL: EIVLTQSPATLSLSPGERATLSCSASSSVSYMYWYQQKPGQAPRPLIYRTSNLASGIPARFSGSGSGTDFTLTISSLEPEDFAVYYCQQYHSYPKFGGGTKVEIK ... 10.57
SA44a (antibody, human IgG1, V domains shown, murine variable regions on human IgG1 kappa constant regions) VH: DVQLQESGPDLVKPSQSLSLTCTVTGYSITSDYNCHWIRQFPGNKLEWMGYIHYSGSTNYNPSLKSRISITRDTSKNQFFLQLNSVTAEDTATYYCARNYGSIYVNYFDYWGQGTTLTVSS VL: QIVLTQSPAIMSASPGEKVTISCSASSSVSYMYWYQQEPGSSPKPWIYRTSNLASGVPPRFSGSGSGTSYSLTISSMEAEDAATYFCQQYHSYPTFGGGTKLEIK ... 9.16
SA320a (antibody, human IgG1, V domains shown, humanized; human IgG1 (suffix a), kappa) VH: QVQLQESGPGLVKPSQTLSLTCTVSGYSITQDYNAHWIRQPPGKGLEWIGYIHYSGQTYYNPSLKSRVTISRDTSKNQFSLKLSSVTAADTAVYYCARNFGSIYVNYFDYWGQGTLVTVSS VL: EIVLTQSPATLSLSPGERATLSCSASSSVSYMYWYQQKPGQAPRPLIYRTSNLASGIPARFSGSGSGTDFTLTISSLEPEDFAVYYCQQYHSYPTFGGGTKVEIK ... 10.28
SA311a (antibody, human IgG1, V domains shown, humanized; human IgG1 (suffix a), kappa) VH: QVQLQESGPGLVKPSQTLSLTCTVSGYSITSDYNAHWIRQPPGKGLEWIGYIHYSGQTMYNPSLKSRVTISRDTSKNQFSLKLSSVTAADTAVYYCARNYGSIYVNYFDYWGQGTLVTVSS VL: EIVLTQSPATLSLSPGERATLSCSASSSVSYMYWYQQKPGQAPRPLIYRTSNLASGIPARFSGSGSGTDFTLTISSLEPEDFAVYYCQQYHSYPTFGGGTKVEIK ... 9.61

Please find the next binder below.
q: Quick check: pKd of SA327a (antibody, human IgG1, V domains shown, humanized; human IgG1 (suffix a), kappa) VH: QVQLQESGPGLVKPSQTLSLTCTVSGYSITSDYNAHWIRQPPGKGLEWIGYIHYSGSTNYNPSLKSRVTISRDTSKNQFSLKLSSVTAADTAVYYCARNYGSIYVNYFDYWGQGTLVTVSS VL: EIVLTQSPATLSLSPGERATLSCSASSSVSYMYWYQQKPGQAPRPLIYRTSNLASGIPARFSGSGSGTDFTLTISSLEPEDFAVYYCQQYHGYPTFGGGTKVEIK ?
a: 9.60

FYI, the data here is from patent US20250368745A1.
